Listing of recorded growth AUC normalised to DMSO control by entry.
Test system: S. enterica typhimurium tolC KO
Experiment: growth AUC normalised to DMSO control (median) (fraction of control); higher = less growth inhibition, active = hit call of the paper;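 also: active when median AUC fell below 0.1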
Conditions: 20 µM
Structures can show the parent of a compound that is named as a salt.
Simply state the number, no unit and no words.

Answered cases to consult:
{"COMPOUND": "O=C(NCC(O)CO)c1c(I)c(C(=O)NCC(O)CO)c(I)c(N(CCO)C(=O)CO)c1I (centres undefined) [Ioversol]", "RECORDED VALUE": 1.01}
{"COMPOUND": "CNCc1cc(-c2ccccc2F)n(S(=O)(=O)c2cccnc2)c1 [Vonoprazan]", "RECORDED VALUE": 0.995}
{"COMPOUND": "CN[C@@H]1[C@H](O[C@H]2[C@H](O[C@H]3[C@H](O)[C@@H](O)[C@H](N=C(N)N)[C@@H](O)[C@@H]3N=C(N)N)O[C@@H](C)[C@]2(O)C=O)O[C@@H](CO)[C@H](O)[C@H]1O [Streptomycin sulfate]", "RECORDED VALUE": 1}

Pending compound:
## Task If you can, please state the reported growth AUC normalised to DMSO control value of CN(C)CCOC(=O)COc1ccc(Cl)cc1 [Meclofenoxate hydrochloride] .
## Result 0.995

* * *

System: P. vulgatus WT
Assay: growth AUC normalised to DMSO control (median) (fraction of control); higher = less growth inhibition, active = hit call of the paper
Settings: 20 µM
Where a name gives a salt, the structure may show the parent alone.
Listing of recorded growth AUC normalised to DMSO control by entry.
Simply state the number, no unit and no words.

Answered cases to consult:
{"COMPOUND": "O=C(O)c1ccccc1C(=O)Nc1ccc(S(=O)(=O)Nc2nccs2)cc1", "growth AUC normalised to DMSO control": 1.03}
{"COMPOUND": "NCCNCCNCCNCCN [Tetraethylenepentamine pentahydrochloride]", "growth AUC normalised to DMSO control": 0.995}
{"COMPOUND": "C/C(=C(\\CCOP(=O)(O)O)SC(=O)c1ccccc1)N(C=O)Cc1cnc(C)nc1N", "growth AUC normalised to DMSO control": 1.03}

## Task If you can, please state the reported growth AUC normalised to DMSO control value of Cc1c(C)c2c(c(C)c1O)CCC(C)(COc1ccc(CC3SC(=O)NC3=O)cc1)O2 (stereo not drawn) .
## Result 0.892

## Task If you can, please state the reported growth AUC normalised to DMSO control value of COC(=O)[C@@H]1[C@H]2C[C@H]3c4[nH]c5ccccc5c4CCN3C[C@@H]2CC[C@@H]1O [Yohimbine hydrochloride] .
## Result 1.01

## Task If you can, please state the reported growth AUC normalised to DMSO control value of `CCCCOc1ccc(CC(=O)NO)cc1` .
## Result 0.991

## Task If you can, please state the reported growth AUC normalised to DMSO control value of `CCCc1nn(C)c2c(=O)[nH]c(-c3cc(S(=O)(=O)N4CCN(C)CC4)ccc3OCC)nc12` .
## Result 1.02

## Task If you can, please state the reported growth AUC normalised to DMSO control value of `Cn1ccnc1S` .
## Result 1.01

* * *

Test system: S. enterica typhimurium WT
Test: growth AUC normalised to DMSO control (median) (fraction of control); higher = less growth inhibition, active = hit call of the paper
Settings: 20 µM
Where a name gives a salt, the structure may show the parent alone.
Listing of recorded growth AUC normalised to DMSO control by entry.
Simply state the number, no unit and no words.

Answered cases to consult:
{"COMPOUND": "CN[C@@H]1[C@H](O[C@H]2[C@H](O[C@H]3[C@H](O)[C@@H](O)[C@H](NC(=N)N)[C@@H](O)[C@@H]3NC(=N)N)O[C@@H](C)[C@]2(O)CO)O[C@@H](CO)[C@H](O)[C@H]1O [Dihydrostreptomycin sulfate]", "growth AUC normalised to DMSO control": 0.992}
{"COMPOUND": "COc1ccccc1N1CCN(CC(O)COc2cccc3ccccc23)CC1 (stereo unspecified) [Naftopidil dihydrochloride]", "growth AUC normalised to DMSO control": 1.01}
{"COMPOUND": "CC(C)(C)NC(=O)[C@@H]1C[C@@H]2CCCC[C@@H]2CN1C[C@@H](O)[C@H](Cc1ccccc1)NC(=O)[C@H](CC(N)=O)NC(=O)c1ccc2ccccc2n1 [Saquinavir mesylate]", "growth AUC normalised to DMSO control": 1.02}
{"COMPOUND": "CC(C)OC(=O)C(C(=O)OC(C)C)=C1SC=CS1 [Malotilate]", "growth AUC normalised to DMSO control": 1}
{"COMPOUND": "CC(C(=O)O)c1ccc(N2CC=CC2)c(Cl)c1 (stereo unspecified) [Pirprofen]", "growth AUC normalised to DMSO control": 1}

Pending compound:
## Task If you can, please state the reported growth AUC normalised to DMSO control value of O=S(=O)(O)CCS [Coenzyme M] .
## Result 1.01
